experiment: Hepatic microsomal stability, MLM
Assay type: in vitro ADME
condition info: In vitro mouse liver microsomal stability
Give measured perc_remaining for each item. Keep answers brief.
Lab book: enter the figure in %, no units written.

Reported perc_remaining of CC(C)[C@@H](Nc1ncnc2[nH]c(-c3cnn(CC(=O)N(C)C)c3)cc12)c1ccc2c(c1)OCCO2 : 39.0

Reported perc_remaining of CCNC(=O)c1cc2c(N[C@H](c3ccc4c(c3)OCCO4)C(C)C)ncnc2[nH]1 (single isomer, unassigned) [ASAP-0013827] : 29.0

Reported perc_remaining of CC(C)[C@@H](Nc1ncnc2[nH]cc(C(=O)NC3CC3)c12)c1ccc2c(c1)S(=O)(=O)CCC2 : 0.0

Reported perc_remaining of CNCc1cc(-c2cc3c(N[C@@H](c4ccc5c(c4)S(=O)(=O)NCC5)C(C)C)ncnc3[nH]2)co1 : 49.0

Reported perc_remaining of COc1ccc([C@H](CC(=O)O)NC(=O)c2ncnc3[nH]ccc23)cc1 (racemic) : 94.0

Reported perc_remaining of CC(C)[C@H](Nc1ncnc2[nH]cc(C(=O)NC3CC3)c12)c1ccc2c(c1)S(=O)(=O)CCC2 (racemic) [ASAP-0008647] : 2.0

Reported perc_remaining of CC(C)[C@@H](Nc1ncnc2[nH]c(-c3cnn(C)c3C#N)cc12)c1ccc2c(c1)S(=O)(=O)CCC2 [ASAP-0008651] : 0.0

Reported perc_remaining of CC(C)[C@@H](Nc1ncnc2[nH]ccc12)c1ccc2c(c1)S(=O)(=O)CCC2 (single isomer, unassigned) : 41.0
